- measurement protocol: Particle size distribution by laser diffraction (Malvern apparatus)
- Assay type: physicochemical
- experimental setup: volume diameter of 50% of the particles
Where a name gives a salt, the structure may show the parent alone.
reported property: Particle size d (v, 0.5)
Please append the unit to your numeric answer.

For the compound COc1ccc(C[C@@H](C)NC[C@H](O)c2ccc(O)c3[nH]c(=O)ccc23)cc1 [carmoterol hydrochloride batch 5] , what Particle size d (v, 0.5) is on record? 1.45 μm

For the compound COc1ccc(C[C@@H](C)NC[C@H](O)c2ccc(O)c3[nH]c(=O)ccc23)cc1 [carmoterol hydrochloride batch 4] , what Particle size d (v, 0.5) is on record? 1.58 μm

For the compound COc1ccc(C[C@@H](C)NC[C@H](O)c2ccc(O)c3[nH]c(=O)ccc23)cc1 [carmoterol hydrochloride batch 6] , what Particle size d (v, 0.5) is on record? 1.61 μm

For the compound COc1ccc(C[C@@H](C)NC[C@H](O)c2ccc(O)c3[nH]c(=O)ccc23)cc1 [carmoterol hydrochloride batch 1] , what Particle size d (v, 0.5) is on record? 2.16 μm

For the compound COc1ccc(C[C@@H](C)NC[C@H](O)c2ccc(O)c3[nH]c(=O)ccc23)cc1 [carmoterol hydrochloride batch 3] , what Particle size d (v, 0.5) is on record? 1.32 μm

For the compound COc1ccc(C[C@@H](C)NC[C@H](O)c2ccc(O)c3[nH]c(=O)ccc23)cc1 [carmoterol hydrochloride batch 2] , what Particle size d (v, 0.5) is on record? 2.03 μm
